- assay.target: σ-receptor
- method.description: Binding activity for σ-receptor, [3H]DTG displacement in rat brain membrane preparation
- Set-up: species or system Sprague-Dowley rat
- applied.conditions: rat whole brain (except cerebella) membrane, [3H]DTG 3 nM, 25°C 60 minutes; compounds tested as hydrochloride; read-out: Sigma [^3H] DTG Ki
# Ki values compiled below
Write it as a number; the unit nM goes unstated.

Here is how some molecules turned out for Ki.
molecule=CC1(C)C2CC[C@]1(C)CN(CCC1CCCCCC1)C2 assay_target=σ-receptor measured_parameter=Ki result_unit=nM observed_value=0.57
molecule=CC1(C)C2CC[C@]1(C)CN(CCC1CCCC1)C2 assay_target=σ-receptor measured_parameter=Ki result_unit=nM observed_value=0.53
molecule=CC1(C)C2CC[C@@]1(C)CN(CCc1ccc3ccccc3c1)C2 assay_target=σ-receptor measured_parameter=Ki result_unit=nM observed_value=8.57
molecule=CC1(C)[C@@H]2CC[C@@]1(C)CN(CCc1ccncc1)C2 assay_target=σ-receptor measured_parameter=Ki result_unit=nM observed_value=15.1

# evaluate next
For CC1(C)C2CC[C@@]1(C)CN(CCC1C3CC4CC(C3)CC1C4)C2 (some centres unmarked) , what is its reported Ki? 0.41

----------
- assay.target: σ-receptor
- method.description: Binding activity for σ-receptor, [3H]DTG displacement in rat brain membrane preparation
- applied.conditions: rat whole brain (except cerebella) membrane, [3H]DTG 3 nM, 25°C 60 minutes; compounds tested as hydrochloride; read-out: Sigma [^3H] DTG Ki
# key: entry, value: pKi
The read-out pKi is expressed as -log10 of concentration in moles per litre.

Some compounds with known pKi results, for comparison:
compound=CC1(C)C2CC[C@]1(C)CN(CCc1ccccn1)C2 observed_value=7.50
compound=CC1(C)C2CC[C@@]1(C)CN(CCC13CC4CC(CC(C4)C1)C3)C2 observed_value=9.49
compound=CC1(C)C2CC[C@]1(C)CN(CCc1ccc3ccccc3c1)C2 observed_value=7.55
compound="COC12CC3CC(C1)C(CCN1CC4CC[C@](C)(C1)C4(C)C)C(C3)C2 (some centres unmarked)" observed_value=9.17

Fill in: pKi of CC1(C)C2CC[C@]1(C)CN(CCC1C3CC4CC(C3)C(O)C1C4)C2 (some centres unmarked) is ___ 8.80

----------
- assay.target: σ-receptor
- method.description: Binding activity for σ-receptor, [3H]DTG displacement in rat brain membrane preparation
- applied.conditions: rat whole brain (except cerebella) membrane, [3H]DTG 3 nM, 25°C 60 minutes; compounds tested as hydrochloride; read-out: Sigma [^3H] DTG Ki
measured.parameter: pKi
Units for pKi: none; it is -log10 of a concentration expressed in mol/L.

compound="CC1(C)C2CC[C@]1(C)CN(CCC1C3CCCC1CCC3)C2 (stereo partly drawn)" assay_target=σ-receptor observed_value=9.06
compound="CC1(C)C2CC[C@]1(C)CN(CCC1C3CC4CC1CC(O)(C4)C3)C2 (stereo partly drawn)" assay_target=σ-receptor observed_value=9.36
compound=CC12CC3CC(C1)CC(CCN1CC4CC[C@](C)(C1)C4(C)C)(C3)C2 assay_target=σ-receptor observed_value=9.06
compound=CC1(C)C2CC[C@]1(C)CN(CCCC1CCCCC1)C2 assay_target=σ-receptor observed_value=9.04

So what does the record say about pKi for CC1(C)C2CC[C@]1(C)CN(CCC1CCCCC1)C2 ? 9.55

What value of measured pKi is listed for CC1(C)C2CC[C@@]1(C)CN(CCC1CCCCC1)C2 ? 9.80
